Parameter EC50: see the listing below.
TEST_SYSTEM: hTLR8 (Homo sapiens, UniProt Q9NR97)
Sequence (Q9NR97 27-1041): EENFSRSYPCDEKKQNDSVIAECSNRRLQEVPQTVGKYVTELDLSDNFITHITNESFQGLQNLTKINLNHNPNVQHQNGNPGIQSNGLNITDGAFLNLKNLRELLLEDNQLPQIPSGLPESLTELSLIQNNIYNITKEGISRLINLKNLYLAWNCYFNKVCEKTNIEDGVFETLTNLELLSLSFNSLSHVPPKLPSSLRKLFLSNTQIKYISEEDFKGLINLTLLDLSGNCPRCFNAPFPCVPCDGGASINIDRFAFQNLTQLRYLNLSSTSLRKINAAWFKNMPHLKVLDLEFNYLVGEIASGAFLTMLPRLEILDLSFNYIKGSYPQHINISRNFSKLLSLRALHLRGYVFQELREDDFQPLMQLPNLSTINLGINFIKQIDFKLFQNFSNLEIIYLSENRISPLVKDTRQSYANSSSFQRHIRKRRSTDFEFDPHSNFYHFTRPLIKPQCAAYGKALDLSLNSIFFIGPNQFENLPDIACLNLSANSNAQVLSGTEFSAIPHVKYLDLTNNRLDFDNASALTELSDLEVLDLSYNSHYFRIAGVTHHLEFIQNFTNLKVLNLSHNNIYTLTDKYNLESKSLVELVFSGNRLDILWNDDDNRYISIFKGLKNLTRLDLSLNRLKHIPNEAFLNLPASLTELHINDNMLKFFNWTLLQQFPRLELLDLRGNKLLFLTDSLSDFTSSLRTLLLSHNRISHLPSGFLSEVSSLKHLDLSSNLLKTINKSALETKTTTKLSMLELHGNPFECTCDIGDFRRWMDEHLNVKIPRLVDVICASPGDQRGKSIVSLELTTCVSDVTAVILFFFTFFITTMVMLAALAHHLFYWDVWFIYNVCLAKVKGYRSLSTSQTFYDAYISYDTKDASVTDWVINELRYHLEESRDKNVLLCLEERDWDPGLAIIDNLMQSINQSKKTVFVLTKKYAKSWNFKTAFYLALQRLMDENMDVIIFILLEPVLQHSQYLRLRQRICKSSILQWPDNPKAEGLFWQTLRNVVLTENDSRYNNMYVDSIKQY
PROTOCOL_SUMMARY: hTLR8 agonistic activity, HEK-Blue hTLR8 SEAP reporter gene assay
COND: HEK-Blue hTLR8 cells, SEAP reporter, about 16 hours incubation; read-out: TLR8 EC50
Expressed in µM, but write only the number.

Enquiry: Reported EC50, compound "CCCc1nc2c(N)nc3ccccc3c2n1CC(C)(C)O" : ____
Return: 5.3

Enquiry: Reported EC50, compound "CCCCCc1nc2c(N)nc3ccccc3c2n1CC(C)(C)O" : ____
Return: 0.267

Enquiry: Reported EC50, compound "CC(C)(O)Cn1c(CCCC(F)(F)F)nc2c(N)nc3ccccc3c21" : ____
Return: 0.965

Enquiry: Reported EC50, compound "CC(C)(O)Cn1c(CCCCC(F)(F)F)nc2c(N)nc3ccccc3c21" : ____
Return: 4.75
